Data provenance: PubChem BioAssay (NCI)

# System: A549 NSCLC
# Experimental details: NCI tumour cell line growth inhibition, 48 h
Parameter: TGI

In the examples that follow, each entry is paired with its recorded TGI.
* CN(C)CCC(/C=C/c1ccccc1)=N\Nc1ccc(Cl)c(Cl)c1 | 10.6 µM
* CNC(=O)c1cc(Oc2cccc3nc(NC(=O)Nc4cc(C(F)(F)F)cc(C(F)(F)F)c4)ccc23)ccn1 | > 100 µM
* Cc1c[nH]c(C(=O)O)c1-c1cccn1-c1ccc(Cl)cc1[N+](=O)[O-] | > 100 µM
* CCOC(=O)C(C)Sc1nnc(COc2ccc(Cl)cc2)n1-c1ccccc1 (stereo not given) | > 100 µM
* O/N=C1\CC2(N3CCOCC3)CCC1(c1ccccc1)CC2 | > 100 µM

Form field: reported TGI of O=c1[nH]c2cc([N+](=O)[O-])ccc2nc1/C(=N/Nc1ccccc1)C(O)c1ccco1 (stereo not given)
> 100 µM

Form field: reported TGI of `O=C(c1ccco1)N(C(=S)N1CCN(c2ccccc2)CC1)C1CCCCC1`
> 100 µM

Form field: reported TGI of CC(C)(C)OC(=O)N1CC(CCl)c2ccc(O)cc21 (stereo not given)
11.3 µM

Form field: reported TGI of NC1C=NNC1=O (stereo not given)
> 100 µM

Form field: reported TGI of CCCCCCCCCC[C@@H](O)[C@@H]1CC[C@@H]([C@@H]2CC[C@@H]([C@@H](O)CCCCCCCCCC[C@H](O)CC3=CC(C)OC3=O)O2)O1 (stereo not given in full)
38.5 µM

---

# System: A498 renal
# Experimental details: NCI tumour cell line growth inhibition, 48 h
Some compounds, each annotated with its measured TGI.

In the examples that follow, each entry is paired with its recorded TGI.
- COc1ccc(C(=O)O[C@H]2CC[C@@]3(C)[C@@H]4CC[C@H]5[C@]6(O)C[C@H](O)[C@@]7(O)[C@@H](CN8C[C@@H](C)CC[C@H]8[C@@]7(C)O)[C@]6(O)C[C@@]53OC24O)cc1OC: > 100 µM
- O=[N+]([O-])c1cccc(-c2nc(-c3ccc(Cl)cc3Cl)cn2-c2ccccc2)c1: > 9.06 µM

Now take the following compound into account.
Form field: reported TGI of `OB(O)c1ccccc1C#Cc1ccccc1B(O)O`
15.6 µM

---

# Test system: LOX IMVI melanoma
# Experimental details: NCI tumour cell line growth inhibition, 48 h; in the data active = GI50 below about 0.43 µM; inactive = the rest
# valid calls are active, inactive; nothing else

Check out these entries, answers already filled in.
* N#Cc1cnc2cc(OC[C@@H](O)CO)c(NC(=O)C3CCCC3)cc2c1Nc1ccc(OCc2cccc(F)c2)c(Cl)c1 | inactive
* CCCCCCCCCCCCCCCCCCNCc1ccc(Cl)cc1 | inactive
* O=[N+]([O-])c1cccc(-c2nc(-c3ccc(Cl)cc3Cl)cn2-c2ccccc2)c1 | inactive
* [N-]=[N+]=NCCCn1c2c(c3ccc([N+](=O)[O-])cc3c1=O)C(=O)c1cc3c(cc1-2)OCO3 | active
* CCC1C(C)C=NN1c1nc(N)nc(C(C#N)=Nc2ccc(N(C)C)cc2)n1 (stereo not given) | inactive
* NCCCCCNc1noc(Cc2c[nH]c3cc(Br)ccc23)n1 | inactive
* O=C(NCCc1ccccc1)Nc1ccc2cc3ccc(NC(=O)NCCc4ccccc4)cc3nc2c1 | active
* NCCCOc1cc2ccccc2cc1C(=O)Nc1ccc(Cl)cc1OC(=O)c1cc2ccccc2cc1OCCCN | active

Please indicate how the test categorized `COc1cc(-n2cc(-c3ccccc3)[nH]c2=O)cc(OC)c1OC` .
inactive

Please indicate how the test categorized CO[C@@H]1CCN(c2nccc(Nc3cc4c(C(C)C)ccc(N5CC(CS(C)(=O)=O)[C@H]5C)c4cn3)n2)C[C@@H]1F (stereo not given in full) .
inactive
